// values below are reported IC50
- TARGET OR TEST SYSTEM: UniProt:P09917
- Sequence (P09917 whole entry): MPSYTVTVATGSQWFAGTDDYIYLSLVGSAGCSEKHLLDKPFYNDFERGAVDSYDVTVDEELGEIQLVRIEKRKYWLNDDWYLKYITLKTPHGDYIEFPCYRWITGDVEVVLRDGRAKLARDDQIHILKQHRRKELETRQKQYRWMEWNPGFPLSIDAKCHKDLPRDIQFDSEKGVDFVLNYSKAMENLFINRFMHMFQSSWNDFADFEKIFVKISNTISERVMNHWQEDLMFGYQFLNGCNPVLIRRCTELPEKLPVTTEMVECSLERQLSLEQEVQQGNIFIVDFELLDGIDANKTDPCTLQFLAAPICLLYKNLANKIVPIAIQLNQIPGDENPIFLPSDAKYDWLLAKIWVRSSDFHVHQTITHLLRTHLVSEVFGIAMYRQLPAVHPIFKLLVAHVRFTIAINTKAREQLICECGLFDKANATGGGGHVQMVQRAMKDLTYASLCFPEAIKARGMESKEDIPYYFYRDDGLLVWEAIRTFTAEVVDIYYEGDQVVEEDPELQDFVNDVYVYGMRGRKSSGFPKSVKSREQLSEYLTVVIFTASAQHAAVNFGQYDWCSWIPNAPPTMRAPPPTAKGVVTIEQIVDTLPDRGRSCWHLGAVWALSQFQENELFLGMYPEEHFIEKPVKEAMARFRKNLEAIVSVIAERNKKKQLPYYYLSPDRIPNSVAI
- ASSAY PROTOCOL: Cell-free 5-LOX enzymatic assay
- Format: biochemical
Supply the numeric figure in nM, leaving out any unit text.

Worked set:
- CHEMICAL STRUCTURE: "CC(C)(C)c1cc(NC(=O)c2cc(-c3ccc4c(c3)OCCO4)n(-c3ccc(S(C)(=O)=O)cc3)n2)cc(C(C)(C)C)c1O"
  IC50, nM: 273
- CHEMICAL STRUCTURE: "Cc1ccc(-c2cc(C(=O)Nc3cc(C(C)(C)C)c(O)c(C(C)(C)C)c3)nn2-c2ccc(F)cc2)cc1"
  IC50, nM: 327

Okay, now this compound:
Ask | Using the record for CC(C)(C)c1cc(NC(=O)c2cc(-c3ccc4ccccc4c3)n(-c3ccc(S(N)(=O)=O)cc3)n2)cc(C(C)(C)C)c1O , state its measured IC50.
Reply | 165
